Just for reference, paper PMC12040169 is where these values come from.

Test: in vitro
Settings: human, hela cells, % viability
Provide the reported viability at 28.5 h, 10 µM of each item.
Report the figure in % without appending any unit label.

// field: viability at 28.5 h, 10 µM; key: CC(=O)Nc1ccc(S(=O)(=O)Nc2nnc(Cc3ccc(Cl)cc3)s2)cc1 [CBK045515] ; value = 97.9

// field: viability at 28.5 h, 10 µM; key: O=C(Cc1cc(F)c(F)c(F)c1)Nc1ccc2ncccc2c1 [CBK159811] ; value = 93

// field: viability at 28.5 h, 10 µM; key: CNC(=O)C1(Cc2ccc(-c3ccccc3)cc2)CCN(C(=O)Cc2ccccc2F)CC1 [CBK285768] ; value = 94.8

// field: viability at 28.5 h, 10 µM; key: Nc1ccc(C(=O)Nc2nc3ccccc3s2)cc1 [CBK287608] ; value = 95.9

// field: viability at 28.5 h, 10 µM; key: COc1cccc2cc(C(=O)C3=C(O)C(=O)N(CCCN4CCOCC4)C3c3ccc(C)cc3)oc12 (centres unmarked) [CBK266420] ; value = 106

* * *

Experiment: in vitro
Conditions: human, hela cells, % viability
Provide the reported viability at 28.5 h, 10 µM of each item.
Report the figure in % without appending any unit label.

// field: viability at 28.5 h, 10 µM; key: O=c1[nH]c2ncc(-c3ccoc3)nc2n1C1CCOCC1 [CBK064973] ; value = 119

// field: viability at 28.5 h, 10 µM; key: O=c1[nH]c(=S)c2c(n1CCc1ccccn1)CCCC2 [CBK023951G] ; value = 101

// field: viability at 28.5 h, 10 µM; key: COc1cc(/C=N\Nc2nnc3c(n2)[nH]c2c(C)cccc23)cc(Br)c1O [CBK262375] ; value = 106

// field: viability at 28.5 h, 10 µM; key: S=C(NNC(=S)Nc1ccc(Cl)c(Cl)c1)Nc1cccnc1 [CBK268483] ; value = 96.2

// field: viability at 28.5 h, 10 µM; key: COC(=O)[C@@H]1CN(C(=O)c2ccc(OC)cc2)CCN1C(C)=O [CBK289578] ; value = 97.5

// field: viability at 28.5 h, 10 µM; key: Cc1ccc(SC(C)C(=O)NCCCN2CCOCC2)cc1 (stereo not shown) [CBK268624] ; value = 88.5

// field: viability at 28.5 h, 10 µM; key: O=C(O)CCn1cc(/C=C2\SC(=S)NC2=O)c(-c2cccc(Br)c2)n1 [CBK265287] ; value = 110

// field: viability at 28.5 h, 10 µM; key: COc1ccc(CN2CCCc3c(C)nc(C4CCCN(C(=O)C5CCC5)C4)nc32)cc1 (stereo not shown) [CBK286117] ; value = 95.1

// field: viability at 28.5 h, 10 µM; key: CC1(C)CCCCC1CC(=O)NS(=O)(=O)c1cccc(-c2nnco2)c1 (stereo not shown) [CBK306477] ; value = 79.3

// field: viability at 28.5 h, 10 µM; key: c1nncn1/N=C1/CCCc2nonc21 [CBK261065] ; value = 91.8

// field: viability at 28.5 h, 10 µM; key: CC(=O)Nc1cccc(-c2cc(NCc3ccccc3)n3nccc3n2)c1 [CBK037153] ; value = 97.2

// field: viability at 28.5 h, 10 µM; key: O=C(CN(c1ccccc1)S(=O)(=O)c1ccccc1[N+](=O)[O-])Nc1ccccc1 [CBK263777] ; value = 76.3

// field: viability at 28.5 h, 10 µM; key: C=CCc1cccc(Cl)c1OCCN1CCN(C)CC1 [CBK269734C] ; value = 90.5

// field: viability at 28.5 h, 10 µM; key: Cc1cc(NC(=O)CN(C)C(=O)Cc2cccc(C(F)(F)F)c2)no1 [CBK305564] ; value = 80.5

// field: viability at 28.5 h, 10 µM; key: CC(Oc1ccc(Br)cc1)C(=O)O/N=C(\N)c1ccncc1 (stereo not shown) [CBK266797] ; value = 93

// field: viability at 28.5 h, 10 µM; key: O=C(CN1CCOCC1)Nc1ccc(Br)cc1[N+](=O)[O-] [CBK267314] ; value = 96.9

// field: viability at 28.5 h, 10 µM; key: CC(=O)Nc1ccc(/C(C)=N/NC(=O)c2ccc(CN3CCOCC3)cc2)cc1 [CBK262720] ; value = 91.7

// field: viability at 28.5 h, 10 µM; key: Cc1cc(NC(=O)NC2CCSc3ccccc32)no1 (stereo not shown) [CBK259296] ; value = 74.8

// field: viability at 28.5 h, 10 µM; key: CCc1nc2ccc(C(=O)N3CCN(C(C)=O)CC3)cn2c1N(C)Cc1ccc(Cl)cc1 [CBK146718] ; value = 105

// field: viability at 28.5 h, 10 µM; key: C=CCNC(=O)CSc1nc(O)cc(=O)[nH]1 [CBK073298] ; value = 104

// field: viability at 28.5 h, 10 µM; key: O=C(Nc1ccc(F)cc1)N1Cc2nc[nH]c2C[C@H]1c1nc(-c2ccc(F)cc2)no1 [CBK288970] ; value = 95

// field: viability at 28.5 h, 10 µM; key: CC1=C(C(=O)N2CCOCC2)C(c2ccc(Cl)cc2)NC(=O)N1c1ccc(C(=O)O)cc1 (stereo not shown) [CBK296999] ; value = 93.1

// field: viability at 28.5 h, 10 µM; key: O=C1NC2CCCCC2NC1CC(=O)N1CCN(Cc2ccccc2)CC1 (stereo not shown) [CBK269484] ; value = 92.5

// field: viability at 28.5 h, 10 µM; key: COc1cc(/C=N/c2ccc(/N=C/c3cc(Br)c(O)c(OC)c3)cc2)cc(Br)c1O [CBK261843] ; value = 82.7

// field: viability at 28.5 h, 10 µM; key: CSc1[nH]nc(N)c1-c1ccc([N+](=O)[O-])cc1 [CBK016751] ; value = 88

// field: viability at 28.5 h, 10 µM; key: O=S(=O)(Nc1nnn[nH]1)c1ccc(-c2ccccc2)cc1 [CBK062381] ; value = 99.7

// field: viability at 28.5 h, 10 µM; key: C=CCNC(=O)N[C@H]1C[C@H]2C(=O)Nc3cc(Cl)ccc3C(=O)N2C1 [CBK289365] ; value = 92.5

// field: viability at 28.5 h, 10 µM; key: O=C(Cn1ccc2ccnc(-c3cccs3)c21)NCc1ccccn1 [CBK284735] ; value = 95.9

// field: viability at 28.5 h, 10 µM; key: COc1ccc(CN2CC[C@H]3NC(=O)CNC(=O)C4(C/C=C/C[C@H]3C2)CCN(C(C)=O)CC4)cc1 [CBK292013] ; value = 90.4

// field: viability at 28.5 h, 10 µM; key: COc1cccc2sc(Nc3nc(-c4cccs4)cs3)nc12 [CBK287469] ; value = 82.8

// field: viability at 28.5 h, 10 µM; key: CCOC(=O)N1CCC(NS(=O)(=O)c2ccc(OC)c(OC)c2)CC1 [CBK045464] ; value = 104

// field: viability at 28.5 h, 10 µM; key: COCC(=O)N1CC[C@@H]2[C@H]1C(=O)N(c1ccc(OC)cc1)C(=O)N2Cc1ccccc1 [CBK289280] ; value = 92.9

// field: viability at 28.5 h, 10 µM; key: CCn1nc(C)c(C(C)NC(=O)c2ccnn2C(F)F)c1C (stereo not shown) [CBK281535] ; value = 88.4

// field: viability at 28.5 h, 10 µM; key: Cn1ncc2c1CCCN(C(=O)c1ccccc1C(F)(F)F)C2 [CBK282251] ; value = 84.1

// field: viability at 28.5 h, 10 µM; key: COC(=O)c1ccc(-c2cnc(OCC3CCN(C(=O)OC(C)(C)C)CC3)nc2)nc1 [CBK170130] ; value = 101

// field: viability at 28.5 h, 10 µM; key: Cc1nc(C(=O)N2CCC3(CCCCOc4ccccc4C(=O)NCCNC3=O)CC2)co1 [CBK292089] ; value = 103

// field: viability at 28.5 h, 10 µM; key: COc1ccc(-c2nc(=S)c3c(n2CCCO)CCCC3)cc1 [CBK027898] ; value = 88.7
